measured_target: trypsin
method_summary: TRF ELISA, Fab on biotinylated trypsin
measurement_name: TRF signal for 10 ug/mL Fab

1) KB_C07 Fab (Fab, V domains shown) VH: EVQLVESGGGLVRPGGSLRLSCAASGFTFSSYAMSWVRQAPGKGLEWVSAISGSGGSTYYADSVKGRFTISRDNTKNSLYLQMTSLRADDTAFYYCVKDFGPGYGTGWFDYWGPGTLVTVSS VL: AVNWYQQLPGKAPKLLIYAAVGCPRILMRCKQDSDCLAGCVCGPNGFCGSASGVSDRFSGSKSGTSASLAISGLRSEDEADYYCASWDDSLRGYVFGTGTKVTVLG :: 276000
2) KB_B02 Fab (Fab, V domains shown) VH: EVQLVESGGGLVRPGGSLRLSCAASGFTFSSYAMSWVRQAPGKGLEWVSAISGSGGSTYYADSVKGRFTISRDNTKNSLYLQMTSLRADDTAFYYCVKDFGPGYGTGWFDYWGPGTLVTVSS VL: AVNWYQQLPGKAPKLLIYAAVGCPRILMRCKQDSDCLAGCVCGPNGFCGTGSGIPERFSGSKSGNTASLTISGLQAEDEGDYYCAAWDDSLSGPVFGGGTKLTVLG :: 56600
3) KB_A11 Fab (Fab, V domains shown) VH: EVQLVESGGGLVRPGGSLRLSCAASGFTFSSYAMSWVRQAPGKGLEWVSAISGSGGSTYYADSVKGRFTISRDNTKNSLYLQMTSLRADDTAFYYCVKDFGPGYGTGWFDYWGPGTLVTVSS VL: YLNWYQQKPGKAPKLLIYAAEICPRILMRCKQDSDCLAGCVCGPNGFCGPSSGIPARFSGSGYGTDFTLTINNIESEDAAYYFCLQHDNFPYTFGQGTKVEIKR :: 212000

Values compiled from patent US20260043020A1.
